Measured IC50, listed per entry for reference.
molecular target: HCV polymerase (NS5B570n-Con1) (Hepatitis C virus genotype 1b, UniProt Q9WMX2); construct: contains a 21 amino acid deletion at the C-terminus relative to the full-length HCV polymerase; 6-histidine (N); made in house; host or cells: E. coli BL21 (DE) pLysS; assay: HCV NS5B RNA polymerase activity assay; format: biochemical, HCV Con1 strain; details: IC50 NS5B polymerase assay, Table I
Dear colleague, please return just the value in nM, with no unit written.

Solved cases (3 shown):
>  <molecule>
CNC(=O)c1c(-c2ccc(Oc3ccc(F)cc3)cc2)oc2cc(N(CC(O)CN)S(C)(=O)=O)c(C3CC3)cc12 (stereo not shown) [Compound I-97]

>  <unit.tag>
nM

>  <recorded.measurement>
48

$$$$
>  <molecule>
CNC(=O)c1c(-c2ccc(Oc3ccc(F)cc3)cc2)oc2cc(C3CCCN3S(C)(=O)=O)c(OC)cc12 (stereo not shown) [Compound I-112]

>  <unit.tag>
nM

>  <recorded.measurement>
349

$$$$
>  <molecule>
CNC(=O)c1c(-c2ccc(Nc3cccnc3)cc2)oc2cc(N(CCO)S(C)(=O)=O)c(OC)cc12 [Compound I-122]

>  <unit.tag>
nM

>  <recorded.measurement>
2050

$$$$

Query: Retrieve IC50 on HCV polymerase (NS5B570n-Con1) (Hepatitis C virus genotype 1b, UniProt Q9WMX2); query CNC(=O)c1c(-c2ccc(Oc3ccccc3Cl)cc2)oc2cc(N(CCO)S(C)(=O)=O)c(OC)cc12 [Compound I-44]
Reply: 82

Query: State measured IC50 of the molecule CNC(=O)c1c(-c2ccc(Nc3ccc(Cl)cc3)cc2)oc2cc(N(CCO)S(C)(=O)=O)c(OC)cc12 [Compound I-3] with HCV polymerase (NS5B570n-Con1) (Hepatitis C virus genotype 1b, UniProt Q9WMX2).
Reply: 214

Query: Please look at CNC(=O)c1c(-c2ccc(Oc3ccc(F)cc3)cc2)oc2cc(N(CCC[S+](C)[O-])S(C)(=O)=O)c(C3CC3)cc12 (stereo not shown) [Compound I-121] and tell me its recorded IC50 on HCV polymerase (NS5B570n-Con1) (Hepatitis C virus genotype 1b, UniProt Q9WMX2).
Reply: 5

Query: Output reported IC50 of the molecule CCCc1cc2c(C(=O)NC)c(-c3ccc(Oc4ccccc4F)cc3)oc2cc1N(CCO)S(C)(=O)=O [Compound I-65] on HCV polymerase (NS5B570n-Con1) (Hepatitis C virus genotype 1b, UniProt Q9WMX2).
Reply: 21

Query: Please report IC50 with HCV polymerase (NS5B570n-Con1) (Hepatitis C virus genotype 1b, UniProt Q9WMX2) for item CNC(=O)c1c(-c2ccc(Oc3ccccc3)cc2)oc2cc(N3CCNS3(=O)=O)c(C3CC3)cc12 [Compound I-102] .
Reply: 20

Query: Provide measured IC50 on HCV polymerase (NS5B570n-Con1) (Hepatitis C virus genotype 1b, UniProt Q9WMX2) for CCc1cc2c(C(=O)NC)c(-c3ccc(Oc4ccc(F)cc4)cc3)oc2cc1N(C)S(C)(=O)=O [Compound I-52] please.
Reply: 128

Query: Enter measured IC50, system HCV polymerase (NS5B570n-Con1) (Hepatitis C virus genotype 1b, UniProt Q9WMX2), for the molecule shown: CNC(=O)c1c(-c2ccc(Oc3ccc(F)cc3)cc2)oc2cc(N(CC3COC3)S(C)(=O)=O)c(C3CC3)cc12 [Compound I-70]
Reply: 13

Query: # assay system HCV polymerase (NS5B570n-Con1) (Hepatitis C virus genotype 1b, UniProt Q9WMX2): give IC50 of CNC(=O)c1c(-c2ccc(Nc3ccc(F)c(Cl)c3)cc2)oc2cc(N(CCO)S(C)(=O)=O)c(OC)cc12 [Compound I-15]
Reply: 82

Query: Fill in IC50 for CNC(=O)c1c(-c2ccc(Oc3ccc(F)cc3)cc2)oc2cc(N(CCNC(C)=O)S(C)(=O)=O)c(C3CC3)cc12 [Compound I-79] tested with HCV polymerase (NS5B570n-Con1) (Hepatitis C virus genotype 1b, UniProt Q9WMX2).
Reply: 68

Query: # return IC50 of CNC(=O)c1c(-c2ccc(Oc3ccc(F)cc3)cc2)oc2cc(N(C3CNC3)S(C)(=O)=O)c(C3CC3)cc12 [Compound I-75] (system: HCV polymerase (NS5B570n-Con1) (Hepatitis C virus genotype 1b, UniProt Q9WMX2))
Reply: 300

Query: Provide IC50, recorded with HCV polymerase (NS5B570n-Con1) (Hepatitis C virus genotype 1b, UniProt Q9WMX2), of CNC(=O)c1c(-c2ccc(Nc3cccc(F)c3)cc2)oc2cc(N(CCO)S(C)(=O)=O)c(OC(C)C)cc12 [Compound I-29]
Reply: 94

Query: Please look at CNC(=O)c1c(-c2ccc(Nc3ccccc3F)cc2)oc2cc(N(CCO)S(C)(=O)=O)c(OC)cc12 [Compound I-5] and tell me its recorded IC50 on HCV polymerase (NS5B570n-Con1) (Hepatitis C virus genotype 1b, UniProt Q9WMX2).
Reply: 34

Query: Would you please give the reported IC50 of CNC(=O)c1c(-c2ccc(Nc3ccc(F)cc3F)cc2)oc2cc(N(CCO)S(C)(=O)=O)c(OC)cc12 [Compound I-14] with HCV polymerase (NS5B570n-Con1) (Hepatitis C virus genotype 1b, UniProt Q9WMX2)?
Reply: 24

---

biological target: HCV polymerase (NS5B570n-Con1) (Hepatitis C virus genotype 1b, UniProt Q9WMX2); construct: contains a 21 amino acid deletion at the C-terminus relative to the full-length HCV polymerase; 6-histidine (N); made in house; host or cells: E. coli BL21 (DE) pLysS; assay: HCV NS5B RNA polymerase activity assay; assay type: biochemical, HCV Con1 strain; conditions: IC50 NS5B polymerase assay, Table I
IC50 overview
Give just the number in nM; leave the unit off.

Worked set:
>  <compound>
CNC(=O)c1c(-c2ccc(Oc3ccccn3)cc2)oc2cc(N(CCO)S(C)(=O)=O)c(OC)cc12 [Compound I-127]

>  <IC50 / nM>
611

$$$$
>  <compound>
CNC(=O)c1c(-c2ccc(Oc3ccccc3F)cc2)oc2cc(N(C)S(C)(=O)=O)c(C)cc12 [Compound I-59]

>  <IC50 / nM>
93

$$$$
>  <compound>
CNC(=O)c1c(-c2ccc(Oc3ccc(F)cc3)cc2)oc2cc(N(CCCS(C)(=O)=O)S(C)(=O)=O)c(C3CC3)cc12 [Compound I-114]

>  <IC50 / nM>
21

$$$$
>  <compound>
CNC(=O)c1c(-c2ccc(Oc3ccc(F)cc3)cc2)oc2cc(NS(C)(=O)=O)c(C3CC3)cc12 [Compound I-40]

>  <IC50 / nM>
98

$$$$
>  <compound>
CNC(=O)c1c(-c2ccc(Oc3ccc(F)cc3)cc2)oc2cc(N(CCCN)S(C)(=O)=O)c(C3CC3)cc12 [Compound I-69]

>  <IC50 / nM>
18

$$$$

Query: Output IC50 of CNC(=O)c1c(-c2ccc(Oc3ccc(F)cc3)cc2)oc2cc(N(CC3COC(=O)N3)S(C)(=O)=O)c(C3CC3)cc12 (stereo not drawn) [Compound I-108]
Reply: 26

Query: Tell me measured IC50 for CNC(=O)c1c(-c2ccc(Oc3cccc(F)c3F)cc2)oc2cc(N(CCO)S(C)(=O)=O)c(OC)cc12 [Compound I-22] please.
Reply: 55

Query: Return reported IC50. Input compound: CNC(=O)c1c(-c2ccc(Oc3ccc(F)cc3)cc2)oc2cc(N(C3CCNC3)S(C)(=O)=O)c(C3CC3)cc12 (stereo not drawn) [Compound I-91]
Reply: 24

Query: Tell us which IC50 value is on record for CNC(=O)c1c(-c2ccc(Oc3ccc(F)cc3)cc2)oc2cc(N(CC[S+](C)[O-])S(C)(=O)=O)c(C3CC3)cc12 (stereo not drawn) [Compound I-120]
Reply: 19

Query: Give recorded IC50. CNC(=O)c1c(-c2ccc(Oc3ccc(F)cc3)cc2)oc2cc(N(C3CCOCC3)S(C)(=O)=O)c(C3CC3)cc12 [Compound I-72]
Reply: 591

Query: Give recorded IC50. CNC(=O)c1c(-c2ccc(Oc3ccc(F)cc3)cc2)oc2cc(N(C3CCOC3)S(C)(=O)=O)c(C3CC3)cc12 (stereo not drawn) [Compound I-84]
Reply: 155

Query: Give the reported value of IC50 for this record: CNC(=O)c1c(-c2ccc(Nc3ccc(F)cc3)nc2)oc2cc(N(CCO)S(C)(=O)=O)c(OC)cc12 [Compound I-126]
Reply: 468

Query: Please give the documented IC50 of CNC(=O)c1c(-c2ccc(Nc3cccc(C#N)c3)cc2)oc2cc(N(CCO)S(C)(=O)=O)c(OC)cc12 [Compound I-12]
Reply: 298

Query: Find the measured IC50 of CNC(=O)c1c(-c2ccc(Oc3ccc(F)cc3)cc2)oc2cc(N(C(C)CN)S(C)(=O)=O)c(C3CC3)cc12 (stereo not drawn) [Compound I-95] and report it.
Reply: 60
